# System: OVCAR-5
# PROTOCOL DETAILS: NCI tumour cell line growth inhibition, 48 h
Calls of active or inactive are those of the source. No stated cut-off is given here; in the data, active = GI50 up to about 1.1 µM and inactive = higher.
Outcome field: choose from active, inactive

// below: answered compounds
COMPOUND: N#Cc1cc([N+](=O)[O-])ccc1NC(=O)C(=O)C(C(=O)/C=C/c1ccccc1)C1OC(=O)c2ccccc21 (stereo unspecified)
TESTED ON: OVCAR-5
ASSIGNED CATEGORY: inactive
//
COMPOUND: CCOC(=O)/C(C(=O)c1ccccc1)=C1\N[C@H](C(=O)OCC)CS1
TESTED ON: OVCAR-5
ASSIGNED CATEGORY: inactive
//
COMPOUND: CC(C)C(/C=C/c1ccccc1)=N\NC(=O)N/N=C(/C=C/c1ccccc1)C(C)C
TESTED ON: OVCAR-5
ASSIGNED CATEGORY: inactive
//
COMPOUND: CC(C)NC(=O)OCc1c(COC(=O)NC(C)C)c(-c2ccc[n+](COC(=O)Cc3ccccc3)c2)n2c1CCC2
TESTED ON: OVCAR-5
ASSIGNED CATEGORY: inactive
//
COMPOUND: CC(C)=NOC(=O)CNC(=O)C(Cc1ccccc1)NC(=O)C(C)NC(=O)OC(C)(C)C (stereo unspecified)
TESTED ON: OVCAR-5
ASSIGNED CATEGORY: inactive

Enquiry: For C=CCN(N=O)C(=O)N(CCCCC(NC(C)=O)C(=O)NCc1ccccc1)Cc1ccccc1 (stereo unspecified) , what call appears in the results of this test?
Return: inactive

Enquiry: Tell me the assay call for OCC1OC(O[C@H]2CN3[C@H](O)[C@@H](O)[C@H](O)[C@H]3C2O)C(O)C(O)C1O (stereo partly specified) please.
Return: inactive

Enquiry: Test call, this compound: Oc1cc(-c2cccc(C(F)(F)F)c2)nc2cc3c(cc12)OCO3
Return: inactive

Enquiry: Record request — test call for C=C1Cc2cc(OC)c(OC)c(OC)c2-c2ccc(SC)c(=O)cc21
Return: active

Enquiry: What is the recorded call for this compound in the test? CC(C)(C)C1CCC2c3c([nH]c4ccccc34)C3C(=O)N(c4cc(Cl)ccc4Cl)C(=O)C3C2C1 (stereo unspecified)
Return: inactive

Enquiry: Test call, this compound: Cc1cccc(/N=N/C(=N\NC(=O)c2cc(Cl)ccc2O)c2ccc(N(CCC#N)CCC#N)cc2C)c1
Return: inactive

Enquiry: Any idea what this test logged for CNC(=O)OCc1c(COC(=O)NC)c(-c2ccc(-c3ccccc3)cc2)n(C)c1C ?
Return: inactive

Enquiry: Dear all, I need the recorded test outcome for CC1=C(C(=O)O)N2C(=O)[C@@H](NC(=O)C(c3ccccc3)N3CSC(=S)N(C(C)C)C3)C2SC1 (stereo partly specified) , thank you.
Return: inactive

Enquiry: Call for entry O=C(O)c1ccc(Nc2cnc3ccc(C(F)(F)F)cc3n2)cc1 :
Return: inactive

Enquiry: Just curious, what result did C/C(=N\NC(=S)NC(CCC(=O)O)C(=O)O)c1cnccn1 (stereo unspecified) get here?
Return: inactive

Enquiry: Per the records of this test, what outcome belongs to CS(=O)(=O)C(=Cc1ccccc1Cl)S(C)(=O)=O ?
Return: inactive

Enquiry: Name the outcome recorded for Oc1ccc2ccccc2c1/N=N/c1ccc(F)cc1 in the assay.
Return: inactive

Enquiry: // outcome(item) with item = Nc1c(S(=O)(=O)O)cc2cc(S(=O)(=O)O)ccc2c1/N=N/c1ccc(-c2ccc(/N=N/c3c(N)c(S(=O)(=O)O)cc4cc(S(=O)(=O)O)ccc34)c(S(=O)(=O)O)c2)cc1
Return: inactive

Enquiry: Could you check what this test reported for CCOP(=O)(OCC)OC(C#N)c1ccc(-c2ccccc2)cc1 (stereo unspecified) ?
Return: inactive

Enquiry: Would you mind telling me which call this test gave C=C1CC[C@@]2(OC1)OC1C[C@H]3[C@@H]4CC=C5C[C@@H](O)CC(OC6OCC(OC(=O)[C@@H](O)[C@@H](C)CC)C(OC(C)=O)C6OC6OC(C)C(O)C(O)C6O)[C@]5(C)[C@H]4CC[C@]3(C)C1[C@@H]2C (stereo partly specified) ?
Return: inactive

Enquiry: What is the recorded call for this compound in the test? COC(=O)[C@H](CCSC)NC(=O)c1ccc(CNC(=O)/C=C/c2cccc(Oc3ccccc3)c2)cc1
Return: inactive

Enquiry: Dear all, I need the recorded test outcome for FC(F)(F)c1nc2ccc(SSc3ccc4nc(C(F)(F)F)[nH]c4c3)cc2[nH]1 , thank you.
Return: inactive

Enquiry: What outcome does the record of this test show for Cc1cc2c(=O)cc(-c3ccncc3)oc2c(C(N)=O)c1C ?
Return: inactive

Enquiry: // outcome(item) with item = COc1cccc2c1C(=O)c1c(O)c3c(c(O)c1C2=O)CC(O)(C(=O)CO)CC3OC1CC(N)C(I)C(C)O1 (stereo unspecified)
Return: inactive
